Target: Skp2 (UniProt Q13309 1-424, limits assumed)
Sequence (Q13309 whole entry): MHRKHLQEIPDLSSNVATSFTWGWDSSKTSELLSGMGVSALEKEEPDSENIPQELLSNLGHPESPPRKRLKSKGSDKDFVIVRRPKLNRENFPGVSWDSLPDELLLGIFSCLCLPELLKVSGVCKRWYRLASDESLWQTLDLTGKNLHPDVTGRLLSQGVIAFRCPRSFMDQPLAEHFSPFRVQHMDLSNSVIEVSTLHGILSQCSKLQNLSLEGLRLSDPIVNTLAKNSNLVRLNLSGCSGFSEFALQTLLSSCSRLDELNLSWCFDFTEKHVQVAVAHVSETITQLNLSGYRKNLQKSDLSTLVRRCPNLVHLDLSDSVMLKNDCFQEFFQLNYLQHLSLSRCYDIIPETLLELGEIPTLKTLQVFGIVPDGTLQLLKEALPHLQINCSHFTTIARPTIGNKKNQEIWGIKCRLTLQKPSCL
Assay: cell-based or functional assay
Non-standard residues stand in square brackets, D forms with d. *: point of attachment. Phe(3-F) = N[C@@H](Cc1cccc(F)c1)C(=O)O; Ethoxycarbonyl = CCOC(=O)*
measured_property: % Inhibition Skp2 @ (100 µM) (%)
Hi! Could you send only the number? It should be in %, unit omitted.

Fill in: % Inhibition Skp2 @ (100 µM) of Ethoxycarbonyl-[dD]EG[Phe(3-F)]WE-NH2 (SMILES CCOC(=O)N[C@H](CC(=O)O)C(=O)N[C@@H](CCC(=O)O)C(=O)NCC(=O)N[C@@H](Cc1cccc(F)c1)C(=O)N[C@@H](Cc1c[nH]c2ccccc12)C(=O)N[C@@H](CCC(=O)O)C(N)=O, also called UBP023) [EtO(CO)-dEGF(3F)WE-NH2] is ___
4
